# SUBJECT OF TEST: Full-length (FL)-PRMT5-MEP50 enzyme complex (Homo sapiens, UniProt O14744)
# Construct: Full-length (FL)-PRMT5-MEP50 enzyme complex (recombinant proteins from baculovirus-transfected Sf21 cells: FL-PRMT5; MW=73837 kDa and FL-MEP50; MW=38614); made in house; host or cells: baculovirus-transfected Sf21 cells
# Sequence (O14744 whole entry): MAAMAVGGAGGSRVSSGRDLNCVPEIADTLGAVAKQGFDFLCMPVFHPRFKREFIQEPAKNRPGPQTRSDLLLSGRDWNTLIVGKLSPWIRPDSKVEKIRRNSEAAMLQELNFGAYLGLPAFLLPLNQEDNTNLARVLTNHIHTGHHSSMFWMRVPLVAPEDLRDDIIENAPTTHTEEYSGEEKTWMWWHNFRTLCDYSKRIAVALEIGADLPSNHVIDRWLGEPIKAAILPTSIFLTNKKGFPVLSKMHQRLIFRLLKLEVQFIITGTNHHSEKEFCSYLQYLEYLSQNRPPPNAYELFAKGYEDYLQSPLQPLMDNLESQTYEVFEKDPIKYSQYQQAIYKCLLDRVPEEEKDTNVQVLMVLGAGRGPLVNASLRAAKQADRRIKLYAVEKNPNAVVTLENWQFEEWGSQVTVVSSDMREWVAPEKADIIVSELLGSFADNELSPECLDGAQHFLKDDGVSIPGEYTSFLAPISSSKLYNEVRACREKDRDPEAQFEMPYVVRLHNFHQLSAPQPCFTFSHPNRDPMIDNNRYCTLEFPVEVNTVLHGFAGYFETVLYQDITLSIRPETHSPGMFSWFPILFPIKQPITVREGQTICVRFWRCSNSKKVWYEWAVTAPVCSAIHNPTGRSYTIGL
# Sequence (Q9BQA1 whole entry partner): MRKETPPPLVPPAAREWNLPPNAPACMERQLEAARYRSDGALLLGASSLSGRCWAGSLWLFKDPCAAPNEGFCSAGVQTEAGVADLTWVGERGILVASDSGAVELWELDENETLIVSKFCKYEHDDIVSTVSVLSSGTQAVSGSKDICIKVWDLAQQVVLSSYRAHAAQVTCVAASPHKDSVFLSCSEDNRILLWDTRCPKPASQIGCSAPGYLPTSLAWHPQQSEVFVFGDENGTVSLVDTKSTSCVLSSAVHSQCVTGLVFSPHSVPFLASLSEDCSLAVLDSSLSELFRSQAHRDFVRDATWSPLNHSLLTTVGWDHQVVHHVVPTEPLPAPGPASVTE
# METHOD: PRMT5-MEP50 Enzyme Methylation Assay (Version A)
# Type: biochemical
# CONDITIONS: second value of 7 parameter biphasic fit; read-out: Enzyme Methylation Assay Version A (EC50 2)
ATTRIBUTE MEASURED: EC50 (µM)

The cases that follow already have their EC50 on record.
CC(n1ccc(C(=O)N2CC[C@]3(Cc4ccccc4CN3)[C@H](O)C2)cc1=O)C(F)(F)F (single isomer, unassigned) [Example 102] = 34.7
O=C(c1nccn2nccc12)N1CC[C@]2(Cc3ccccc3CN2)[C@H](O)C1 [Example 185] = 26.9

1 = O=C(c1ccnc2ncnn12)N1CC[C@]2(Cc3ccccc3CN2)[C@H](O)C1 [Example 189]
2 = O=C(c1cn2cccc(Cl)c2n1)N1CC[C@]2(Cc3ccccc3CN2)[C@H](O)C1 [Example 206]
Which value of EC50 is greater, the one for 1 or the one for 2 ? Give the label of your selection. 1
(1: 66.1 µM, 2: 7.24 µM)
